Ref: paper PMC9319256

# ASSAY_SYSTEM: human importin α3 (Impα3), intact (human)
# Sequence (O00629 whole entry): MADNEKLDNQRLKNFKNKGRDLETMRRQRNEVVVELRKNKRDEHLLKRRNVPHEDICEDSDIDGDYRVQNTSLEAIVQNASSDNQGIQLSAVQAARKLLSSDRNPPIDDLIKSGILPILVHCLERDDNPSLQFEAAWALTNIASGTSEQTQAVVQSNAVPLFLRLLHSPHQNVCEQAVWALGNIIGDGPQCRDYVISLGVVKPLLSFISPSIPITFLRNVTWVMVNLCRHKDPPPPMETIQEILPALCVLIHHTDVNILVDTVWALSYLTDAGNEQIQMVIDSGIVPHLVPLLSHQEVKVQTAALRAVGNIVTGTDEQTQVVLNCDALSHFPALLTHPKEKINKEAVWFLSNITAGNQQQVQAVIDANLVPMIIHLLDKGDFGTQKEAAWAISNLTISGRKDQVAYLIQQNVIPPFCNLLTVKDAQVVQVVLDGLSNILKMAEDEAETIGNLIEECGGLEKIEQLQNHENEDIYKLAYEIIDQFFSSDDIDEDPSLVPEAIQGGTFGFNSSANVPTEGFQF
# TEST_DESCRIPTION: other fluorescence titration; peptide 0-20 µM added to 3 µM Impα3 or ΔImpα3; 20 mM Tris pH 7.5, 5 mM TCEP, 150 mM NaCl, 5% glycerol; 25 °C; fluorescence at 330 nm
QUANTITY_KIND: pKd
One number for each entry, as −log10 of the molar value.

Sample Ac-YKLFQEQQNEGHGEALLFEGIKKKKQQKI-NH2 [NLS2-PADI4 peptide] ; pKd observed: 5.40
